Reference source for all entries: paper PMC9837035

- protocol-description: Aqueous solubility
- Type: physicochemical
- cond: phosphate buffer, pH 7.4, pH7.4; read-out: Solubility in PBS
quantity-measured: solubility at 1 h (µM)
One number for each entry, in µM.

Problem: // query solubility at 1 h value for entry Cc1c(C(=O)NC(CCC2CC2)C(=O)Nc2ccc(C#N)cc2)[nH]c2c1C(=O)CC(C)(C)C2 (stereo not shown) [RK-701]
Solution: 10.9

###

- assayed-target: DNMT1 (Homo sapiens)
- Sequence (P26358 whole entry): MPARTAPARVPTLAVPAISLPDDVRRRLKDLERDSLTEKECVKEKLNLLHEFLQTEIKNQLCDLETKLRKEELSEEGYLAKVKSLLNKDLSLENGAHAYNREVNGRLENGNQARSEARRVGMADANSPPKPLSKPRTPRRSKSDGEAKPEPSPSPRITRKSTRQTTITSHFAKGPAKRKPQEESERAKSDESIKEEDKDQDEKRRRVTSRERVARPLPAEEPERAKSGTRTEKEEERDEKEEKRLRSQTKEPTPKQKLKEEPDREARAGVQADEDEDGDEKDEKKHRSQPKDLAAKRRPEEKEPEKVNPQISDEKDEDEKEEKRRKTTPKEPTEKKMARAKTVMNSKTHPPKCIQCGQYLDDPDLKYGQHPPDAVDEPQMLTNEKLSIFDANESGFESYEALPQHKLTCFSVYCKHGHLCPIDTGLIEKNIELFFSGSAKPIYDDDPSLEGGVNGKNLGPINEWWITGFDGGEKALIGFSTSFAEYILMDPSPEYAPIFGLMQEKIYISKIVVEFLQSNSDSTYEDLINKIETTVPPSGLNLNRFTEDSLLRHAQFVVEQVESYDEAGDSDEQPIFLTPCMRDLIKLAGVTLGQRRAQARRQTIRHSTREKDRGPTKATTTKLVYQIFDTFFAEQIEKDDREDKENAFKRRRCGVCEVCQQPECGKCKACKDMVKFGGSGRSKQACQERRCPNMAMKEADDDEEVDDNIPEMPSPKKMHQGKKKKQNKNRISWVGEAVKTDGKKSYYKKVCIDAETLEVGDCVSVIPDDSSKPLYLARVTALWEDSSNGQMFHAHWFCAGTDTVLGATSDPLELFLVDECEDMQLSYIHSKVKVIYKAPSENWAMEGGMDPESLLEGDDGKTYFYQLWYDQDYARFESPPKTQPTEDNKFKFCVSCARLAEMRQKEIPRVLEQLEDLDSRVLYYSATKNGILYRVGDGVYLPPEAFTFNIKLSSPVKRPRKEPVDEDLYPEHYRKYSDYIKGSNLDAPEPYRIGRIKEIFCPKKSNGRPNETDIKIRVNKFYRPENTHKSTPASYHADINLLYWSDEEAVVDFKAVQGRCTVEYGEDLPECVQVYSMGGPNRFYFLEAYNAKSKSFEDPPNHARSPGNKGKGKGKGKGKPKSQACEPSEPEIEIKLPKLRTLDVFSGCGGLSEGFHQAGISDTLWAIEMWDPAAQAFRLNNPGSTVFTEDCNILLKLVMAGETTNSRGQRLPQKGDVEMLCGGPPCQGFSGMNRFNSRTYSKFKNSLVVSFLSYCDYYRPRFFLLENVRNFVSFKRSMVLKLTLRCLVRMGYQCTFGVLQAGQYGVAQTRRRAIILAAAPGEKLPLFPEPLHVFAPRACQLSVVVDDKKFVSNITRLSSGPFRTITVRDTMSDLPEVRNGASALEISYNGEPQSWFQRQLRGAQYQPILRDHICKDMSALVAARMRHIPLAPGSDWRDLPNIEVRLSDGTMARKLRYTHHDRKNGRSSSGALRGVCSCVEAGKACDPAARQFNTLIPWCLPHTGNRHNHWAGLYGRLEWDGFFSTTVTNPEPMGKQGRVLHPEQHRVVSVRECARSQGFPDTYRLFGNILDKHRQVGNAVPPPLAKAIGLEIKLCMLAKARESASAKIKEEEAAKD
- protocol-description: Radioisotope-based methyltransferase assay (selectivity)
- cond: IC50, DNMT1, 1 μM SAM
quantity-measured: IC50

Problem: // query IC50 value for entry Cc1c(C(=O)NC(CCC2CC2)C(=O)Nc2ccc(C#N)cc2)[nH]c2c1C(=O)CC(C)(C)C2 (stereo not shown)
Solution: > 100 µM
